target: D(1A) dopamine receptor (Homo sapiens); assay: D1 receptor modulation with EC30 dopamine, dose response, D1 allosteric modulator project, cell-based, CRE-luciferase, HEK293 (AID 858);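 note: HEK 293 cells bearing human D1 receptor stimulated by dopamine at its EC30; luciferase light from a cAMP response element reporter gene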
READOUT TYPE: pEC50
Note: pEC50 values are expressed as the negative base-10 logarithm of concentration in M.

Solved entries (count: 5):
| MOLECULE | TARGET ENTITY | pEC50 |
| --- | --- | --- |
| CCCCn1c(=NC(=O)c2cccnc2)c(C(=O)OCC)cc2c(=O)n3ccccc3nc21 | D(1A) dopamine receptor (Homo sapiens) | 5.69 |
| N#Cc1c(N)nc(-c2ccccc2)nc1-c1ccccc1 | D(1A) dopamine receptor (Homo sapiens) | 5.93 |
| NC(=O)CSc1nc2scc(-c3ccco3)c2c(=O)n1-c1ccccc1 | D(1A) dopamine receptor (Homo sapiens) | 5.79 |
| COc1ccc(OC)c(/C=N/c2oc(-c3ccco3)c(-c3ccco3)c2C#N)c1 | D(1A) dopamine receptor (Homo sapiens) | 5.71 |
| C1CCC(c2nn3c(-c4n[nH]c5c4CCC5)nnc3s2)CC1 | D(1A) dopamine receptor (Homo sapiens) | 5.94 |

Inquiry: Need pEC50, item "COc1ccc(-c2noc(CCN3C(=O)c4ccccc4C3=O)n2)cc1OC"
Reply text: 6.51

Inquiry: Need pEC50, item "CCCCNC(=O)Nc1ccc(Br)cn1"
Reply text: 5.61

Inquiry: Need pEC50, item "COc1ccc(C(=O)Nc2nnc(Cc3cccs3)s2)cc1OC"
Reply text: 6.50

Inquiry: Need pEC50, item "Cc1cc(Br)c2c(c1)=C(c1sc(N3CCCCCC3)nc1O)C(=O)N=2"
Reply text: 5.87

Inquiry: Need pEC50, item Cc1c(C(=O)OCC(C)C)[nH]c2c1C(=O)CC(c1ccco1)C2 (stereo unspecified)
Reply text: 5.80

Inquiry: Need pEC50, item "C=CCNc1sc(C(=O)C(C)(C)C)c(N)c1C#N"
Reply text: 5.94
